Kindly supply the reported Lym values for the records listed here.
Species on record: Rattus norvegicus
Assay: Open TG-GATES - Regimen: Single
Format: toxicity, organism-based, Sprague-Dawley
Parameters: regimen Single, gender Male, age 6 weeks
Conditions: in vivo, po, 0 mg/kg, 3 h, tissue Blood, route gavage, dose level Control
Give just the number in %; leave the unit off.

Reported Lym ( O=C(O)COc1nn(Cc2ccccc2)c2ccccc12 ) = 77.2

# compound CC(=O)N1CCN(c2ccc(OCC3COC(Cn4ccnc4)(c4ccc(Cl)cc4Cl)O3)cc2)CC1 (configuration not stated) ; its Lym = 76.4

The compound CC[C@@H](CO)NCCN[C@@H](CC)CO showed Lym equal to 83.8

So for CC(C)Cc1ccc(C(C)C(=O)O)cc1 (configuration not stated) , the logged Lym turned out to be 72.8

compound CCN(CC)N=O , Lym observed: 77.8

The compound listed as CC(=O)Nc1ccc2c(c1)Cc1ccccc1-2 shows Lym equal to 76.8

In plain terms, CC(CCc1ccccc1)NCC(O)c1ccc(O)c(C(N)=O)c1 (configuration not stated) has a documented Lym of 80.6

====

Species: Rattus norvegicus
Experiment: Open TG-GATES - Regimen: Single
Assay type: toxicity, organism-based, Sprague-Dawley
Parameters: regimen Single, gender Male, age 6 weeks
Details: in vivo, po, 0 mg/kg, 9 h, tissue Plasma, route gavage, dose level Control
Could you please report measured gamma-GTP for the items listed next?
Lab book: enter the figure in IU/L, no units written.

gamma-GTP reading for CC(=O)Nc1ccc2c(c1)Cc1ccccc1-2 [2-ACETYLAMINOFLUORENE] : 1

Record CC[C@@H](CO)NCCN[C@@H](CC)CO [ETHAMBUTOL] , field gamma-GTP: 1.2

compound CC(=O)N1CCN(c2ccc(OCC3COC(Cn4ccnc4)(c4ccc(Cl)cc4Cl)O3)cc2)CC1 (configuration not stated) [KETOCONAZOLE] , gamma-GTP observed: 1

Value of gamma-GTP reported for the compound CC(C)Cc1ccc(C(C)C(=O)O)cc1 (configuration not stated) [IBUPROFEN] is 1.2

gamma-GTP reading for CCN(CC)N=O [N-NITROSODIETHYLAMINE] : 1.4

Value of gamma-GTP reported for the compound O=C(O)COc1nn(Cc2ccccc2)c2ccccc12 [BENDAZAC] is 1.8

Entry CC(CCc1ccccc1)NCC(O)c1ccc(O)c(C(N)=O)c1 (configuration not stated) [LABETALOL] , gamma-GTP reported as 1.2

====

Assign Neu to each entry below.
Organism: Rattus norvegicus
Assay: Open TG-GATES - Regimen: Daily Repeat
Assay type: toxicity, organism-based, Sprague-Dawley
Design: regimen Daily Repeat, gender Male, age 6 weeks
Conditions: in vivo, po, 0 mg/kg, […], tissue Blood, route gavage, dose level Control, time 14 day
Response body: numeric value in %, unit text excluded.

Input CC(N)=O [ACETAMIDE] . Output Neu: 15.2

For reference, reported Neu for CC(CCc1ccccc1)NCC(O)c1ccc(O)c(C(N)=O)c1 (configuration not stated) [LABETALOL] stands at 23.8

Lab note: measured Neu of O=C(O)COc1nn(Cc2ccccc2)c2ccccc12 [BENDAZAC] was 11.8

The measured Neu associated with CC(=O)Nc1ccc2c(c1)Cc1ccccc1-2 [2-ACETYLAMINOFLUORENE] reads 12.6

// Neu lookup, compound = CC(=O)N1CCN(c2ccc(OCC3COC(Cn4ccnc4)(c4ccc(Cl)cc4Cl)O3)cc2)CC1 (configuration not stated) [KETOCONAZOLE] , result: 15.4

The reported Neu of the compound CC[C@@H](CO)NCCN[C@@H](CC)CO [ETHAMBUTOL] was 15

Entry CCN(CC)N=O [N-NITROSODIETHYLAMINE] ; Neu = 13.8

====

Organism: Rattus norvegicus
Assay: Open TG-GATES - Regimen: Daily Repeat
Assay type: toxicity, organism-based, Sprague-Dawley
Parameters: regimen Daily Repeat, gender Male, age 6 weeks
Conditions: in vivo, po, 0 mg/kg, […], tissue Plasma, route gavage, dose level Control, time 14 day
Short version: TC at least 70 mg/dL is y, less is n.

Is it the case that CCN(CC)N=O [N-NITROSODIETHYLAMINE] has TC reaching or exceeding 70 mg/dL? y

Answer whether TC of CC(C)Cc1ccc(C(C)C(=O)O)cc1 (configuration not stated) [IBUPROFEN] is greater than or equal to 70 mg/dL. y

Check this compound for TC at or above 70 mg/dL: CC(CCc1ccccc1)NCC(O)c1ccc(O)c(C(N)=O)c1 (configuration not stated) [LABETALOL] y

Check this compound for TC at or above 70 mg/dL: O=C(O)COc1nn(Cc2ccccc2)c2ccccc12 [BENDAZAC] y

Dear colleague, could you confirm whether CC[C@@H](CO)NCCN[C@@H](CC)CO [ETHAMBUTOL] has TC at or above 70 mg/dL? n

====

Organism: Rattus norvegicus
Experiment: Open TG-GATES - Regimen: Daily Repeat
Format: toxicity, organism-based, Sprague-Dawley
Set-up: regimen Daily Repeat, gender Male, age 6 weeks
Settings: in vivo, po, 0 mg/kg, […], tissue Plasma, route gavage, dose level Control, time 28 day
// NB: equality with 70 IU/L counts as no; only LDH strictly below is yes

Decide: LDH of CC(CCc1ccccc1)NCC(O)c1ccc(O)c(C(N)=O)c1 (stereo not given) strictly below 70 IU/L? yes

State whether 70 IU/L exceeds LDH recorded for CC[C@@H](CO)NCCN[C@@H](CC)CO . no

Check if LDH falls below 70 IU/L for CC(=O)Nc1ccc2c(c1)Cc1ccccc1-2 . no

Say whether its LDH is strictly beneath 70 IU/L. Entry: CC(C)Cc1ccc(C(C)C(=O)O)cc1 (stereo not given) no

====

Species: Rattus norvegicus
Test: Open TG-GATES - Regimen: Daily Repeat
Type: toxicity, organism-based, Sprague-Dawley
Set-up: regimen Daily Repeat, gender Male, age 6 weeks
Conditions: in vivo, po, 0 mg/kg, […], tissue Kidney, route gavage, dose level Control, time 28 day
RECORDED_ENDPOINT: KIDNEY_TOTAL (g)
I only need the number, in g, no unit after it.

Measured KIDNEY_TOTAL of CC(N)=O [ACETAMIDE] : 2.8

# KIDNEY_TOTAL of CC(C)Cc1ccc(C(C)C(=O)O)cc1 (stereo not drawn) = 2.7

get_value(item= CCN(CC)N=O , readout=KIDNEY_TOTAL) returns 2.7

# molecule CC(=O)Nc1ccc2c(c1)Cc1ccccc1-2 ; its KIDNEY_TOTAL = 3

Consider CC[C@@H](CO)NCCN[C@@H](CC)CO . Its measured KIDNEY_TOTAL is 2.8

Looking up O=C(O)COc1nn(Cc2ccccc2)c2ccccc12 , I found its KIDNEY_TOTAL recorded as 2.8

Sure, the documented KIDNEY_TOTAL for CC(=O)N1CCN(c2ccc(OCC3COC(Cn4ccnc4)(c4ccc(Cl)cc4Cl)O3)cc2)CC1 (stereo not drawn) is 2.7

Please fill in: KIDNEY_TOTAL reported for CC(CCc1ccccc1)NCC(O)c1ccc(O)c(C(N)=O)c1 (stereo not drawn) = 2.9

====

Species on record: Rattus norvegicus
Assay: Open TG-GATES - Regimen: Daily Repeat
Type: toxicity, organism-based, Sprague-Dawley
Set-up: regimen Daily Repeat, gender Male, age 6 weeks
Settings: in vivo, po, 0 mg/kg, […], tissue Plasma, route gavage, dose level Control, time 7 day
Hi there, I'd appreciate the recorded Ca for every entry that follows.

For CCN(CC)N=O [N-NITROSODIETHYLAMINE] the molecule record lists Ca as 10.4 mg/dL

Record CC(=O)Nc1ccc2c(c1)Cc1ccccc1-2 [2-ACETYLAMINOFLUORENE] . Reported Ca: 10.7 mg/dL

So, O=C(O)COc1nn(Cc2ccccc2)c2ccccc12 [BENDAZAC] ? Its Ca was 11.3 mg/dL

response.value for CC(=O)N1CCN(c2ccc(OCC3COC(Cn4ccnc4)(c4ccc(Cl)cc4Cl)O3)cc2)CC1 (stereo unspecified) [KETOCONAZOLE] (field: Ca) = 10.8 mg/dL

Consider CC(N)=O [ACETAMIDE] . Its measured Ca is 10.5 mg/dL

Entry CC[C@@H](CO)NCCN[C@@H](CC)CO [ETHAMBUTOL] ; Ca = 10.5 mg/dL

====

Organism: Rattus norvegicus
Assay: Open TG-GATES - Regimen: Single
Assay type: toxicity, organism-based, Sprague-Dawley
Parameters: regimen Single, gender Male, age 6 weeks
Details: in vivo, po, 0 mg/kg, 24 h, tissue Blood, route gavage, dose level Control
RECORDED_ENDPOINT: MCHC (%)
Express the result in % but write the number alone.

According to the records, this compound CCN(CC)N=O [N-NITROSODIETHYLAMINE] displays MCHC of 34.1

So, CC(CCc1ccccc1)NCC(O)c1ccc(O)c(C(N)=O)c1 (configuration not stated) [LABETALOL] ? Its MCHC was 34.1

response.value for CC[C@@H](CO)NCCN[C@@H](CC)CO [ETHAMBUTOL] (field: MCHC) = 35.1

Value of measured MCHC for the entry O=C(O)COc1nn(Cc2ccccc2)c2ccccc12 [BENDAZAC] : 34

Given item CC(=O)Nc1ccc2c(c1)Cc1ccccc1-2 [2-ACETYLAMINOFLUORENE] , the value recorded as its MCHC is 34.3

Note to self: MCHC recorded for CC(=O)N1CCN(c2ccc(OCC3COC(Cn4ccnc4)(c4ccc(Cl)cc4Cl)O3)cc2)CC1 (configuration not stated) [KETOCONAZOLE] was 34.2

response.value for CC(C)Cc1ccc(C(C)C(=O)O)cc1 (configuration not stated) [IBUPROFEN] (field: MCHC) = 33.8

Value source: ChEMBL document CHEMBL3885861
